- test.system: T1, human glucose-dependent insulinotropic peptide receptor (human, UniProt P48546 22-466)
- T1 sequence (looked up): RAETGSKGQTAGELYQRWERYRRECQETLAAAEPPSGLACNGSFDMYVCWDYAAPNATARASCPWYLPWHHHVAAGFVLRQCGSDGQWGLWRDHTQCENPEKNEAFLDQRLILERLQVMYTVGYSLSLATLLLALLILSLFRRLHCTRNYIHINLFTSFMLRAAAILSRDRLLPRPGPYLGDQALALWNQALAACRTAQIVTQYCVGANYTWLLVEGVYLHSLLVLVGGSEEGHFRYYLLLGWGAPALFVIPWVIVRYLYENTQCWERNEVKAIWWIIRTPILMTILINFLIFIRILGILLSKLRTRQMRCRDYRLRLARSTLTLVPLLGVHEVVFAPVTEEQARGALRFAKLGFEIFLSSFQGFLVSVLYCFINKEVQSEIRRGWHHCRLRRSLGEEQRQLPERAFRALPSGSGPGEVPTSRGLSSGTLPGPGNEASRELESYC
- run.description: cell-based or functional assay
reported.endpoint: hGIPR cAMP Rel EC50 (nM)
The reply should contain only the number, in nM.

Use the examples below as a reference point.
[
  {
    "binder": "YXEGTXISDYSIXLDKKHQXDFVEXLLEGGPSSGAPPPS (Aib2; Iva6; αMeL13; K17((2-[2-(2-Amino-ethoxy)-ethoxy]-acetyl)2-(γ-Glu)-CO-(CH2)18-CO2H); Aib20; 4-Pal25; C-terminal amide) [Example 74]",
    "hGIPR cAMP Rel EC50, nM": 0.0167
  },
  {
    "binder": "YXEGTXISDYSIXLDKKHQXDFVEXLLETGPSSGAPPPS (Aib2; Iva6; αMeL13; K17((2-[2-(2-Amino-ethoxy)-ethoxy]-acetyl)2-(γ-Glu)-CO-(CH2)18-CO2H); Aib20; 4-Pal25; C-terminal amide) [Example 75]",
    "hGIPR cAMP Rel EC50, nM": 0.0182
  }
]

// next entry
Summary for this binder, YXEGTFISDYSILLDKKAQXEFVNWLLAQGPSSGAPPPS (D-Ala2; K17((2-[2-(2-Amino-ethoxy)-ethoxy]-acetyl)2-(γ-Glu)-CO-(CH2)16-CO2H); Aib20; C-terminal amide) [Example 20] : hGIPR cAMP Rel EC50 is 0.00933
